Origin of values: patent US20040121946A9

assayedTarget: HLA-A*3301 (Homo sapiens, UniProt P04439, A270S/D185E/E176V/E277Q/E87N/F33T/G231S/H175R/I121M/I218V/I322F/K168Q/K210R/L300P/L318F/M331R/P217A/Q86R/Q94H/R138Q/T323A/T345S/T97I/V358M/Y195H)
studyConditions: Table XXIII, HLA-A3 supermotif-bearing peptides
pIC50: −log10 of the molar value. Where a SMILES comes first, the peptide text is derived from it. [ ]: non-standard residue; d: D form. Abu = CC[C@H](N)C(=O)O
Each record gets a class by pIC50: bottom range (below 6), center range (6 to below 7), top range (7 or more)

Use the examples below as a reference point.
[
  {
    "molecule": "CC[C@H](NC(=O)[C@H](CC(N)=O)NC(=O)[C@@H](NC(=O)[C@@H](N)CC)C(C)C)C(=O)N[C@@H](CO)C(=O)N[C@@H](CCC(N)=O)C(=O)N[C@@H](Cc1ccccc1)C(=O)N[C@@H](CC(C)C)C(=O)N[C@@H](CCCNC(=N)N)C(=O)O [Her2/neu.528.B1B4] (H-[Abu]VN[Abu]SQFLR-OH)",
    "group": "top range"
  },
  {
    "molecule": "CC[C@H](C)[C@H](N)C(=O)N[C@@H](CO)C(=O)N[C@@H](Cc1c[nH]c2ccccc12)C(=O)N[C@@H](CC(C)C)C(=O)NCC(=O)N[C@@H](CC(C)C)C(=O)N[C@@H](CCCNC(=N)N)C(=O)N[C@@H](CO)C(=O)N[C@@H](CC(C)C)C(=O)N[C@@H](CCCNC(=N)N)C(=O)O",
    "group": "center range"
  },
  {
    "molecule": "CC(C)C[C@H](NC(=O)[C@H](CCC(N)=O)NC(=O)[C@H](CC(=O)O)NC(=O)[C@H](Cc1c[nH]c2ccccc12)NC(=O)[C@@H]1CCCN1C(=O)[C@@H](NC(=O)[C@@H](NC(=O)[C@@H](N)Cc1c[nH]cn1)C(C)C)C(C)C)C(=O)N[C@@H](Cc1ccccc1)C(=O)N[C@@H](CCCCN)C(=O)O",
    "group": "bottom range"
  },
  {
    "molecule": "CC(C)[C@H](NC(=O)[C@@H](N)[C@@H](C)O)C(=O)N[C@@H](CS)C(=O)N[C@@H](C)C(=O)NCC(=O)NCC(=O)N[C@@H](CS)C(=O)N[C@@H](C)C(=O)N[C@@H](CCCNC(=N)N)C(=O)O",
    "group": "center range"
  },
  {
    "molecule": "CC[C@H](C)[C@H](N)C(=O)N[C@H](C(=O)N[C@@H](CCCCN)C(=O)NCC(=O)NCC(=O)N[C@H](C(=O)N[C@@H](CC(C)C)C(=O)N[C@H](C(=O)N[C@@H](CCC(N)=O)C(=O)N[C@@H](CCCCN)C(=O)O)[C@@H](C)CC)C(C)C)C(C)C",
    "group": "bottom range"
  }
]

Field: class (pIC50) — entry: CC[C@H](NC(=O)CNC(=O)CNC(=O)[C@H](C)NC(=O)[C@H](CC)NC(=O)[C@@H](NC(=O)[C@@H](N)[C@@H](C)O)C(C)C)C(=O)N[C@@H](C)C(=O)N[C@@H](CCCNC(=N)N)C(=O)O [Her2/neu.218.B3B7] (H-TV[Abu]AGG[Abu]AR-OH)
center range

Field: class (pIC50) — entry: `CC(C)C[C@H](NC(=O)[C@H](Cc1ccccc1)NC(=O)[C@H](CCC(N)=O)NC(=O)[C@H](CO)NC(=O)[C@H](CS)NC(=O)[C@H](CC(N)=O)NC(=O)[C@@H](NC(=O)[C@@H](N)CS)C(C)C)C(=O)N[C@@H](CCCNC(=N)N)C(=O)O`
top range

Field: class (pIC50) — entry: `CC[C@H](C)[C@H](NC(=O)[C@H](CCC(=O)O)NC(=O)[C@@H](NC(=O)[C@H](CC(C)C)NC(=O)[C@H](CO)NC(=O)[C@H](CCCNC(=N)N)NC(=O)[C@H](CC(C)C)NC(=O)[C@@H](N)CCC(N)=O)[C@@H](C)O)C(=O)N[C@@H](CC(C)C)C(=O)N[C@@H](CCCCN)C(=O)O`
bottom range

Field: class (pIC50) — entry: CC[C@H](NC(=O)[C@H](CC(N)=O)NC(=O)[C@@H](NC(=O)[C@@H](N)CC)C(C)C)C(=O)N[C@@H](CO)C(=O)N[C@@H](CCC(N)=O)C(=O)N[C@@H](Cc1ccccc1)C(=O)N[C@@H](CC(C)C)C(=O)N[C@@H](CCCCN)C(=O)O [Her2/neu.528.B1B4K9] (H-[Abu]VN[Abu]SQFLK-OH)
bottom range

Field: class (pIC50) — entry: `CC(C)C[C@H](NC(=O)[C@@H]1CCCN1C(=O)[C@@H](NC(=O)[C@H](C)N)C(C)C)C(=O)N[C@@H](CC(=O)O)C(=O)N[C@@H](CO)C(=O)N[C@H](C(=O)N[C@@H](Cc1ccccc1)C(=O)N[C@@H](Cc1ccc(O)cc1)C(=O)N[C@@H](CCCNC(=N)N)C(=O)O)[C@@H](C)O`
bottom range

---

Test system: HLA-DR molecules (DR1, DR4w4, DR7, DRB5*0101, DRB1*1501, DRB1*1101, DRB1*0802, DRB1*1302)
procedureText: DR supertype cross-reactive binding
Design: species or system human
studyConditions: number of DR1, DR4w4, DR7 bound, Table XXVIII
assayMetric: DR147 Cross-binding
Answers are plain numbers.

Examples from the recorded data:
[
  {
    "smilesText": "CC(C)C[C@H](NC(=O)CNC(=O)[C@H](Cc1c[nH]c2ccccc12)NC(=O)[C@@H](N)CCCNC(=N)N)C(=O)N[C@@H](CC(C)C)C(=O)N[C@@H](CC(C)C)C(=O)N[C@@H](C)C(=O)N[C@@H](CC(C)C)C(=O)N[C@@H](CC(C)C)C(=O)N1CCC[C@H]1C(=O)N1CCC[C@H]1C(=O)NCC(=O)N[C@@H](C)C(=O)N[C@@H](C)C(=O)N[C@@H](CO)C(=O)O",
    "DR147 Cross-binding": 2
  },
  {
    "smilesText": "CSCC[C@H](NC(=O)[C@@H](NC(=O)[C@H](Cc1ccc(O)cc1)NC(=O)[C@H](C)NC(=O)[C@H](CCC(=O)O)NC(=O)[C@@H](N)CC(=O)O)C(C)C)C(=O)N[C@@H](C)C(=O)NCC(=O)N[C@H](C(=O)NCC(=O)N[C@@H](CO)C(=O)N1CCC[C@H]1C(=O)N[C@@H](Cc1ccc(O)cc1)C(=O)N[C@H](C(=O)N[C@@H](CO)C(=O)O)C(C)C)C(C)C",
    "DR147 Cross-binding": 3
  }
]

Item `CC[C@H](C)[C@H](NC(=O)[C@H](CCSC)NC(=O)[C@H](Cc1ccc(O)cc1)NC(=O)[C@@H](NC(=O)[C@H](CC(=O)O)NC(=O)[C@@H](NC(=O)[C@@H](NC(=O)[C@H](CS)NC(=O)[C@@H](NC(=O)[C@@H]1CCCN1C(=O)[C@@H]1CCCN1C(=O)[C@@H](N)CCC(N)=O)[C@@H](C)CC)[C@@H](C)O)[C@@H](C)CC)C(C)C)C(=O)N[C@@H](CCSC)C(=O)N[C@H](C(=O)N[C@@H](CCCCN)C(=O)O)C(C)C` ; assay system HLA-DR molecules (DR1, DR4w4, DR7, DRB5*0101, DRB1*1501, DRB1*1101, DRB1*0802, DRB1*1302); DR147 Cross-binding reported as 2

---

Kindly state IC50 for each of the entries shown.
assayedTarget: HLA-A*3101 (Homo sapiens, UniProt P04439, A270S/D185E/E176V/E277Q/F33T/G231S/G80R/H175R/I121M/I218V/I322F/K168Q/L300P/L318F/M331R/P217A/Q94H/R138Q/T323A/T345S/T97I/V358M)
Assay type: binding
studyConditions: Table XXIII, HLA-A3 supermotif-bearing peptides
Where no end group is shown, it is not given here.
Answers are plain numbers, in nM.

Examples from the recorded data:
[
  {
    "sequenceChain": "LVKSPNHVR [Her2/neu.852.R9]",
    "resultUnit": "nM",
    "IC50": 198
  },
  {
    "sequenceChain": "AVPLDSTFYK [Her2/neU.997.V2K10]",
    "resultUnit": "nM",
    "IC50": 1500
  }
]

The sequence listed as TILWKDIFHK [Her2/neu.166] shows IC50 equal to 487

---

assayedTarget: HLA-A*1101 (Homo sapiens, UniProt P04439, A114D/D185E/E176A/F33Y/L180Q/S129P/T187R)
Sequence (P04439 25-365 limits assumed, stated change not applied): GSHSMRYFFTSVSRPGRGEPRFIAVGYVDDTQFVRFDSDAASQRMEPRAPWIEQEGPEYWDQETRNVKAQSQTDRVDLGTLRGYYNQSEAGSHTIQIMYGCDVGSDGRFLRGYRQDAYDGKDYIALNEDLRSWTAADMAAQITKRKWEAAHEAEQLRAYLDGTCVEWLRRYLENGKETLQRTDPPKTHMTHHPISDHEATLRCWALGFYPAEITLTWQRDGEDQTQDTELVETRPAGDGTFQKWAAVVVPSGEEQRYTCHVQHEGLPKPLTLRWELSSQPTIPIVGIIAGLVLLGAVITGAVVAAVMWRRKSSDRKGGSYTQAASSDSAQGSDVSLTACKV
studyConditions: Table XXIII, HLA-A3 supermotif-bearing peptides
Where a SMILES comes first, the peptide text is derived from it. [ ]: non-standard residue; d: D form. Abu = CC[C@H](N)C(=O)O
assayMetric: IC50 (nM)
One number for each entry, in nM.

[
  {
    "compound": "CC(C)[C@H](NC(=O)[C@@H](NC(=O)[C@@H](N)CCCNC(=N)N)[C@@H](C)O)C(=O)N[C@@H](CS)C(=O)N[C@@H](C)C(=O)NCC(=O)NCC(=O)N[C@@H](CS)C(=O)N[C@@H](C)C(=O)N[C@@H](CCCNC(=N)N)C(=O)O [Her2/neu.217]",
    "assayedTarget": "HLA-A*1101 (Homo sapiens, UniProt P04439, A114D/D185E/E176A/F33Y/L180Q/S129P/T187R)",
    "assayMetric": "IC50",
    "resultUnit": "nM",
    "recordedResult": 462
  },
  {
    "compound": "CC(C)C[C@H](NC(=O)[C@@H]1CCCN1C(=O)[C@@H](NC(=O)[C@H](C)N)C(C)C)C(=O)N[C@@H](CC(=O)O)C(=O)N[C@@H](CO)C(=O)N[C@H](C(=O)N[C@@H](Cc1ccccc1)C(=O)N[C@@H](Cc1ccc(O)cc1)C(=O)N[C@@H](CCCNC(=N)N)C(=O)O)[C@@H](C)O [Her2/neu.997.V2]",
    "assayedTarget": "HLA-A*1101 (Homo sapiens, UniProt P04439, A114D/D185E/E176A/F33Y/L180Q/S129P/T187R)",
    "assayMetric": "IC50",
    "resultUnit": "nM",
    "recordedResult": 88
  },
  {
    "compound": "CC[C@H](C)[C@H](N)C(=O)N[C@@H](CC(C)C)C(=O)N[C@@H](Cc1c[nH]c2ccccc12)C(=O)N[C@@H](CCCCN)C(=O)N[C@@H](CC(=O)O)C(=O)N[C@H](C(=O)N[C@@H](Cc1ccccc1)C(=O)N[C@@H](Cc1c[nH]cn1)C(=O)N[C@@H](CCCCN)C(=O)O)[C@@H](C)CC [Her2/neu.167]",
    "assayedTarget": "HLA-A*1101 (Homo sapiens, UniProt P04439, A114D/D185E/E176A/F33Y/L180Q/S129P/T187R)",
    "assayMetric": "IC50",
    "resultUnit": "nM",
    "recordedResult": 19
  },
  {
    "compound": "CC(C)C[C@H](NC(=O)[C@H](CCC(N)=O)NC(=O)[C@H](CC(=O)O)NC(=O)[C@H](Cc1c[nH]c2ccccc12)NC(=O)[C@@H]1CCCN1C(=O)[C@@H](NC(=O)[C@@H](NC(=O)[C@@H](N)Cc1c[nH]cn1)C(C)C)C(C)C)C(=O)N[C@@H](Cc1ccccc1)C(=O)N[C@@H](CCCCN)C(=O)O [Her2/neu.478.V2K10]",
    "assayedTarget": "HLA-A*1101 (Homo sapiens, UniProt P04439, A114D/D185E/E176A/F33Y/L180Q/S129P/T187R)",
    "assayMetric": "IC50",
    "resultUnit": "nM",
    "recordedResult": 375
  }
]

Respectfully, I request IC50 for each entry included below.
1. CC[C@H](NC(=O)CNC(=O)CNC(=O)[C@H](C)NC(=O)[C@H](CC)NC(=O)[C@@H](NC(=O)[C@@H](N)[C@@H](C)O)C(C)C)C(=O)N[C@@H](C)C(=O)N[C@@H](CCCCN)C(=O)O [Her2/neu.218.B3B7K9] (H-TV[Abu]AGG[Abu]AK-OH)
2. CC[C@H](NC(=O)CNC(=O)CNC(=O)[C@H](C)NC(=O)[C@H](CC)NC(=O)[C@@H](NC(=O)[C@@H](N)[C@@H](C)O)C(C)C)C(=O)N[C@@H](C)C(=O)N[C@@H](CCCNC(=N)N)C(=O)O [Her2/neu.218.B3B7] (H-TV[Abu]AGG[Abu]AR-OH)
3. CC[C@H](NC(=O)[C@H](CC(N)=O)NC(=O)[C@@H](NC(=O)[C@@H](N)CC)C(C)C)C(=O)N[C@@H](CO)C(=O)N[C@@H](CCC(N)=O)C(=O)N[C@@H](Cc1ccccc1)C(=O)N[C@@H](CC(C)C)C(=O)N[C@@H](CCCCN)C(=O)O [Her2/neu.528.B1B4K9] (H-[Abu]VN[Abu]SQFLK-OH)

29
111
22
